Test system: C4-2 cells
Assay: Long-term growth assay (crystal violet), C4-2
Type: cell-based, human
Details: Homo sapiens, C4-2, 120 h; day 5; read-out: Day Five Effects on Cell line IC50 (μM) ± S.E.M., C4-2
Method: C4-2 cells were plated at cell densities established previously to reach saturation at day 7. The cells were allowed to recover overnight before a media change with the analogues (all at 40 μM) was performed. The assays were terminated at day 1, 3, 5 and 7. Media changes were performed on day 0, 2, 4 and 6 with fresh analogues added each time. The cells were then fixed with glutaraldehyde and stained with crystal violet. The dye is then eluted in Sorenson's solution and the absorbance read at 540 nm. […]

compound: CCCCCCCC(O)(C(N)=O)c1ccc(Cl)cc1 (stereo not drawn)
IC50 [µM]: 61.1
--
compound: CCCCCCCC(O)(C(N)=O)c1cccc(Cl)c1 (stereo not drawn)
IC50 [µM]: 51.3
--
compound: CCCCCCCC1(c2ccccc2)NC(=O)NC1=O (stereo not drawn)
IC50 [µM]: 67.4

====

test system: DU-145; experiment: Long-term growth assay (crystal violet), DU-145; type: cell-based; details: Homo sapiens, DU-145, 120 h; day 5; read-out: Day Five Effects on Cell line IC50 (μM) ± S.E.M., DU-145
Below, each of the compounds is paired with its reported IC50 value.

compound: CCCCCCCC(O)(C(N)=O)c1ccc(Cl)cc1 (stereo not drawn)
IC50 [µM]: 67.2
//
compound: CCCCCCCC(O)(C(N)=O)c1cccc(Cl)c1 (stereo not drawn)
IC50 [µM]: 56
//
compound: CCCCCCCC1(c2ccccc2)NC(=O)NC1=O (stereo not drawn)
IC50 [µM]: 35.6

====

This listing pairs molecules with measured IC50.
target: sodium channel (BTX site 2); assay: 3H-BTX-B binding inhibition; conditions: 3H-BTX-B Inhibition Data

molecule: O=C1NC(=O)C(c2ccccc2)(c2ccccc2)N1 [phenytoin, reference compound]
IC50, µM: 40

molecule: CCCCCCCC1(c2ccccc2)NC(=O)NC1=O (centres unmarked)
IC50, µM: 5
